Source of measurements: patent US20240116985A1

This listing pairs compounds with measured IC50.
molecular target: full-length beta-Catenin (Uniprot ID P35222) (Homo sapiens); construct: 10 nM full-length beta-Catenin (Uniprot ID P35222); experiment: Fluorescence polarization IC50 (beta-catenin / 5FAM-TCF4 10-53 competition); assay type: binding; details: fluorescence polarization; read-out: beta-Catenin FP IC50
Sequence (P35222 whole entry): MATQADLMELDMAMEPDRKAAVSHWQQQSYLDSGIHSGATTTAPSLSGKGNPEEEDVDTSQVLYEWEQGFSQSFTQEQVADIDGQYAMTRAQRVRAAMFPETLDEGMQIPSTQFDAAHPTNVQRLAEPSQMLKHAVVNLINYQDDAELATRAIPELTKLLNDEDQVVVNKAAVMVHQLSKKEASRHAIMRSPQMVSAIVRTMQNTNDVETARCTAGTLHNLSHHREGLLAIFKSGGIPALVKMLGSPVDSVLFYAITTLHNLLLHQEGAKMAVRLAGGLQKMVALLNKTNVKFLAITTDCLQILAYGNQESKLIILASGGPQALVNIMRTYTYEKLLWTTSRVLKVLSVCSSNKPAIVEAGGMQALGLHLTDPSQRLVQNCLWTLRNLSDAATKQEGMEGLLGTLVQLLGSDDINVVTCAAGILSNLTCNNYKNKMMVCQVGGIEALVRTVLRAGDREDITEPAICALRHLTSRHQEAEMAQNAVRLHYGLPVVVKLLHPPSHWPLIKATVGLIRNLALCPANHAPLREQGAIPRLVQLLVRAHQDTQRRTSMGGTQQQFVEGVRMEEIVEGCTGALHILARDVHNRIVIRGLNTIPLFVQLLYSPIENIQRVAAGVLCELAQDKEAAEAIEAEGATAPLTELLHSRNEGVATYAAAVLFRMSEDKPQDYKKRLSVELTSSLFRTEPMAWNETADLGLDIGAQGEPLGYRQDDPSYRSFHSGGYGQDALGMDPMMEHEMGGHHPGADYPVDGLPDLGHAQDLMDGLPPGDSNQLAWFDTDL
Write it as a number; the unit nM goes unstated.

CC(=O)N1CCC[C@]12CC=CCCCC1(CCCC=CCCCOC(=O)N3CC[C@@](C(=O)N[C@@H](Cc4ccsc4)C(=O)N[C@@H](Cc4csc5ccccc45)C(=O)N[C@@H](CCC(N)=O)C(N)=O)(C3)NC(=O)[C@H](CC(C)C)NC(=O)[C@H](Cc3ccccc3)NC(=O)[C@H](C)NC(=O)[C@H](C)NC(=O)[C@H](Cc3cc(C(=O)O)cc(C(F)(F)F)c3)NC(=O)[C@H](CC(=O)O)NC1=O)NC(=O)[C@H](CC(C)(C)C)NC(=O)[C@H](CC(=O)O)NC2=O (some centres unmarked)    27

Turning now to a further compound:
Ask: Please list IC50 recorded for the compound CC(=O)N1CCC[C@]12CC=CCCCC1(CCCC=CCCCOC(=O)N3CC[C@@](C(=O)N[C@@H](Cc4ccsc4)C(=O)N[C@@H](Cc4csc5ccccc45)C(=O)N[C@@H](CCC(N)=O)C(N)=O)(C3)NC(=O)[C@H](CC(C)C)NC(=O)[C@H](Cc3ccccc3)NC(=O)[C@H](C)NC(=O)[C@H](C)NC(=O)[C@H](Cc3cccc(C(=O)O)c3)NC(=O)[C@H](CC(=O)O)NC1=O)NC(=O)[C@H](CC(C)(C)C)NC(=O)[C@H](CC(=O)O)NC2=O (some centres unmarked)
Result: 8

###

Quick reference for chromatographic logD among some compounds
test: CHI Log D procedure; assay type: physicochemical; details: pH 7.4
Reply briefly: the number, and no unit.

# count of solved cases: 2
CC(=O)N1CCC[C@]12CC=CCCCC1(CCCC=CCCCOC(=O)N3CC[C@@](C(=O)N[C@@H](Cc4ccsc4)C(=O)N[C@@H](Cc4csc5ccccc45)C(=O)N[C@@H](CCC(N)=O)C(=O)N[C@@H](CCCCNC(=O)C(C)(c4ccccc4)c4ccccc4)C(N)=O)(C3)NC(=O)[C@H](CC(N)=O)NC(=O)[C@H](Cc3ccccc3)NC(=O)[C@H](C)NC(=O)[C@H](C)NC(=O)[C@H](CC(=O)O)NC(=O)[C@H](CC(=O)O)NC1=O)NC(=O)[C@H](CC(C)(C)C)NC(=O)[C@H](CC(=O)O)NC2=O (stereo partly drawn) [I-904]    2.65
CC[C@H](C)[C@@H]1NC(=O)[C@H](CC(=O)O)NC(=O)[C@]2(CC=CCCCC3(CCCC=CCCCCCC[C@@](C)(C(=O)N[C@@H](Cc4ccccc4)C(=O)N[C@@H](Cc4csc5ccccc45)C(=O)N[C@@H](CCCCNC(=O)CN=[N+]=[N-])C(N)=O)NC(=O)[C@H](CCC(N)=O)NC(=O)[C@H](Cc4ccccc4)NC(=O)[C@H](C)NC(=O)[C@H](C)NC(=O)[C@H](CCC(=O)O)NC(=O)[C@H](CC(=O)O)NC3=O)NC1=O)CCCN2C(C)=O (stereo partly drawn) [I-595]    2.64

Ask: Provide only the value of recorded chromatographic logD for CC(=O)N1CCC[C@]12CC=CCCCC1(CCCC=CCCCOC(=O)N3CC[C@@](C(=O)N[C@@H](Cc4ccsc4)C(=O)N[C@@H](Cc4csc5ccccc45)C(=O)N[C@@H](CCC(N)=O)C(N)=O)(C3)NC(=O)[C@H](CC(N)=O)NC(=O)[C@H](Cc3ccccc3)NC(=O)[C@H](C)NC(=O)[C@H](C)NC(=O)[C@H](CC(=O)O)NC(=O)[C@H](CC(=O)O)NC1=O)NC(=O)[C@H](CCCCNC(=O)CN=[N+]=[N-])NC(=O)[C@H](CC(=O)O)NC2=O (stereo partly drawn) [I-880]
Result: 1.72
